The values you see were collected from the NIST ThermoML archive (doi:10.1021/je700205n).

Kindly state mass density for each of the entries shown.
Settings: 303.15 K; 10000 kPa; Liquid
Your answer is read as kg/m3, so omit the unit and give the number.

# input Dear colleague, I am looking for the recorded mass density of the following molecule: CCn1cc[n+](C)c1.F[B-](F)(F)F [1-ethyl-3-methylimidazolium tetrafluoroborate]
# output 1300

# input Also need `CCn1cc[n+](C)c1.O=S(=O)([N-]S(=O)(=O)C(F)(F)F)C(F)(F)F` , thanks.
# output 1522

# input Also need `CCCCCCCCn1cc[n+](C)c1.O=S(=O)([N-]S(=O)(=O)C(F)(F)F)C(F)(F)F` , thanks.
# output 1322

# input Also need `CCCCCCCn1cc[n+](C)c1.O=S(=O)([N-]S(=O)(=O)C(F)(F)F)C(F)(F)F` , thanks.
# output 1349

====

Kindly state mass density for each of the entries shown.
Settings: 393.15 K; 20000 kPa; Liquid
Your answer is read as kg/m3, so omit the unit and give the number.

# input Dear colleague, I am looking for the recorded mass density of the following compound: `CCn1cc[n+](C)c1.O=S(=O)([N-]S(=O)(=O)C(F)(F)F)C(F)(F)F`
# output 1443

# input Also need CCn1cc[n+](C)c1.F[B-](F)(F)F [1-ethyl-3-methylimidazolium tetrafluoroborate] , thanks.
# output 1240

# input Also need `CCCCCCCn1cc[n+](C)c1.O=S(=O)([N-]S(=O)(=O)C(F)(F)F)C(F)(F)F` , thanks.
# output 1281

# input Also need `CCCCCCCCn1cc[n+](C)c1.O=S(=O)([N-]S(=O)(=O)C(F)(F)F)C(F)(F)F` , thanks.
# output 1256

====

Conditions: 353.15 K; 4000 kPa; Liquid
Numbers after ± are expanded uncertainties.
QUANTITY: mass density
Form entry: enter the amount, then its unit.

# input Dear colleague, I am looking for the recorded mass density of the following compound: `CCn1cc[n+](C)c1.O=S(=O)([N-]S(=O)(=O)C(F)(F)F)C(F)(F)F`
# output 1465 ± 4 kg/m3

# input Also need `CCCCCCCCn1cc[n+](C)c1.O=S(=O)([N-]S(=O)(=O)C(F)(F)F)C(F)(F)F` , thanks.
# output 1272 ± 3 kg/m3

# input Also need `CCCCCCCn1cc[n+](C)c1.O=S(=O)([N-]S(=O)(=O)C(F)(F)F)C(F)(F)F` , thanks.
# output 1298 ± 3 kg/m3

# input Also need CCn1cc[n+](C)c1.F[B-](F)(F)F [1-ethyl-3-methylimidazolium tetrafluoroborate] , thanks.
# output 1259 ± 3 kg/m3

====

Settings: 313.15 K; 20000 kPa; Liquid
QUANTITY: mass density (kg/m3)
Your answer is read as kg/m3, so omit the unit and give the number.

# input Dear colleague, I am looking for the recorded mass density of the following compound: `CCn1cc[n+](C)c1.O=S(=O)([N-]S(=O)(=O)C(F)(F)F)C(F)(F)F`
# output 1518

# input Also need `CCCCCCCCn1cc[n+](C)c1.O=S(=O)([N-]S(=O)(=O)C(F)(F)F)C(F)(F)F` , thanks.
# output 1320

# input Also need CCn1cc[n+](C)c1.F[B-](F)(F)F [1-ethyl-3-methylimidazolium tetrafluoroborate] , thanks.
# output 1297

# input Also need `CCCCCCCn1cc[n+](C)c1.O=S(=O)([N-]S(=O)(=O)C(F)(F)F)C(F)(F)F` , thanks.
# output 1347

====

Conditions: 313.15 K; 5000 kPa; Liquid
Numbers after ± are expanded uncertainties.
QUANTITY: mass density

# input Dear colleague, I am looking for the recorded mass density of the following molecule: `CCn1cc[n+](C)c1.O=S(=O)([N-]S(=O)(=O)C(F)(F)F)C(F)(F)F`
# output 1507 ± 5 kg/m3

# input Also need `CCCCCCCCn1cc[n+](C)c1.O=S(=O)([N-]S(=O)(=O)C(F)(F)F)C(F)(F)F` , thanks.
# output 1309 ± 3 kg/m3

# input Also need CCn1cc[n+](C)c1.F[B-](F)(F)F [1-ethyl-3-methylimidazolium tetrafluoroborate] , thanks.
# output 1290 ± 3 kg/m3

# input Also need `CCCCCCCn1cc[n+](C)c1.O=S(=O)([N-]S(=O)(=O)C(F)(F)F)C(F)(F)F` , thanks.
# output 1336 ± 4 kg/m3

====

Conditions: 353.15 K; 100 kPa; Liquid
Kindly state mass density for each of the entries shown.
Your answer is read as kg/m3, so omit the unit and give the number.

# input Dear colleague, I am looking for the recorded mass density of the following compound: `CCn1cc[n+](C)c1.O=S(=O)([N-]S(=O)(=O)C(F)(F)F)C(F)(F)F`
# output 1461

# input Also need CCn1cc[n+](C)c1.F[B-](F)(F)F [1-ethyl-3-methylimidazolium tetrafluoroborate] , thanks.
# output 1257

# input Also need `CCCCCCCCn1cc[n+](C)c1.O=S(=O)([N-]S(=O)(=O)C(F)(F)F)C(F)(F)F` , thanks.
# output 1269

# input Also need `CCCCCCCn1cc[n+](C)c1.O=S(=O)([N-]S(=O)(=O)C(F)(F)F)C(F)(F)F` , thanks.
# output 1295

====

Conditions: 293.15 K; 1000 kPa; Liquid
QUANTITY: mass density (kg/m3)
Your answer is read as kg/m3, so omit the unit and give the number.

# input Dear colleague, I am looking for the recorded mass density of the following compound: `CCn1cc[n+](C)c1.O=S(=O)([N-]S(=O)(=O)C(F)(F)F)C(F)(F)F`
# output 1526

# input Also need `CCCCCCCn1cc[n+](C)c1.O=S(=O)([N-]S(=O)(=O)C(F)(F)F)C(F)(F)F` , thanks.
# output 1353

# input Also need CCn1cc[n+](C)c1.F[B-](F)(F)F [1-ethyl-3-methylimidazolium tetrafluoroborate] , thanks.
# output 1305

# input Also need `CCCCCCCCn1cc[n+](C)c1.O=S(=O)([N-]S(=O)(=O)C(F)(F)F)C(F)(F)F` , thanks.
# output 1328

====

Details: 313.15 K; 2000 kPa; Liquid
Kindly state mass density for each of the entries shown.
Your answer is read as kg/m3, so omit the unit and give the number.

# input Dear colleague, I am looking for the recorded mass density of the following compound: CCn1cc[n+](C)c1.F[B-](F)(F)F [1-ethyl-3-methylimidazolium tetrafluoroborate]
# output 1289

# input Also need `CCCCCCCCn1cc[n+](C)c1.O=S(=O)([N-]S(=O)(=O)C(F)(F)F)C(F)(F)F` , thanks.
# output 1307

# input Also need `CCCCCCCn1cc[n+](C)c1.O=S(=O)([N-]S(=O)(=O)C(F)(F)F)C(F)(F)F` , thanks.
# output 1333

# input Also need `CCn1cc[n+](C)c1.O=S(=O)([N-]S(=O)(=O)C(F)(F)F)C(F)(F)F` , thanks.
# output 1505

====

Conditions: 293.15 K; 5000 kPa; Liquid
Kindly state mass density for each of the entries shown.
Your answer is read as kg/m3, so omit the unit and give the number.

# input Dear colleague, I am looking for the recorded mass density of the following molecule: `CCCCCCCCn1cc[n+](C)c1.O=S(=O)([N-]S(=O)(=O)C(F)(F)F)C(F)(F)F`
# output 1331

# input Also need `CCn1cc[n+](C)c1.O=S(=O)([N-]S(=O)(=O)C(F)(F)F)C(F)(F)F` , thanks.
# output 1529

# input Also need `CCCCCCCn1cc[n+](C)c1.O=S(=O)([N-]S(=O)(=O)C(F)(F)F)C(F)(F)F` , thanks.
# output 1356

# input Also need CCn1cc[n+](C)c1.F[B-](F)(F)F [1-ethyl-3-methylimidazolium tetrafluoroborate] , thanks.
# output 1307

====

Kindly state mass density for each of the entries shown.
Details: 303.15 K; 7500 kPa; Liquid
Your answer is read as kg/m3, so omit the unit and give the number.

# input Dear colleague, I am looking for the recorded mass density of the following molecule: `CCCCCCCCn1cc[n+](C)c1.O=S(=O)([N-]S(=O)(=O)C(F)(F)F)C(F)(F)F`
# output 1321

# input Also need CCn1cc[n+](C)c1.F[B-](F)(F)F [1-ethyl-3-methylimidazolium tetrafluoroborate] , thanks.
# output 1299

# input Also need `CCn1cc[n+](C)c1.O=S(=O)([N-]S(=O)(=O)C(F)(F)F)C(F)(F)F` , thanks.
# output 1520

# input Also need `CCCCCCCn1cc[n+](C)c1.O=S(=O)([N-]S(=O)(=O)C(F)(F)F)C(F)(F)F` , thanks.
# output 1347

====

Kindly state mass density for each of the entries shown.
Settings: 353.15 K; 10000 kPa; Liquid
Your answer is read as kg/m3, so omit the unit and give the number.

# input Dear colleague, I am looking for the recorded mass density of the following compound: `CCn1cc[n+](C)c1.O=S(=O)([N-]S(=O)(=O)C(F)(F)F)C(F)(F)F`
# output 1470

# input Also need `CCCCCCCCn1cc[n+](C)c1.O=S(=O)([N-]S(=O)(=O)C(F)(F)F)C(F)(F)F` , thanks.
# output 1277

# input Also need CCn1cc[n+](C)c1.F[B-](F)(F)F [1-ethyl-3-methylimidazolium tetrafluoroborate] , thanks.
# output 1262

# input Also need `CCCCCCCn1cc[n+](C)c1.O=S(=O)([N-]S(=O)(=O)C(F)(F)F)C(F)(F)F` , thanks.
# output 1303
